# Experimental Target: HLA-B*18:01
# Assay Details: IEDB peptide-MHC binding, purified MHC/competitive/fluorescence; filed as Kd, often an IC50 or EC50 that approximates it; bounds were set here for any values at or beyond the usual limits of such assays
# Protocol Conditions: source organism: Araucaria virus
pKd: −log10 of the molar value.
Endpoint Name: pKd

IN: Which pKd reading was recorded for the sequence `LYVAGVPEL` ?
OUT: ≤ 4.70

---

# Experimental Target: HLA-B*45:06
# Assay Details: IEDB peptide-MHC binding, purified MHC/competitive/fluorescence; filed as Kd, often an IC50 or EC50 that approximates it; bounds were set here for any values at or beyond the usual limits of such assays
# Protocol Conditions: source organism: Salmonella enterica subsp. arizonae serovar 62:z4,z23:-
pKd: −log10 of the molar value.
Endpoint Name: pKd

IN: Which pKd reading was recorded for the sequence `YTIYGAWMF` ?
OUT: ≤ 5.30

---

# Experimental Target: HLA-B*58:01
# Assay Details: IEDB peptide-MHC binding, purified MHC/competitive/fluorescence; bounds were set here for any values at or beyond the usual limits of such assays
# Protocol Conditions: source organism: Rattus norvegicus
Endpoint Name: IC50

IN: Request: IC50, test system HLA-B*58:01, entry `SLLERGQQLGV`
OUT: ≥ 20 µM

---

# Experimental Target: HLA-B*15:01
# Assay Details: IEDB peptide-MHC binding, purified MHC/direct/fluorescence; filed as Kd, often an IC50 or EC50 that approximates it; bounds were set here for any values at or beyond the usual limits of such assays
# Protocol Conditions: source organism: Coxiella burnetii
pKd: −log10 of the molar value.
Endpoint Name: pKd

IN: Which pKd reading was recorded for the sequence `YHFDPVHHL` ?
OUT: ≤ 4.70

IN: Which pKd reading was recorded for the sequence `VFFKQWFEK` ?
OUT: ≤ 4.70

IN: Which pKd reading was recorded for the sequence `PEIRRWIIF` ?
OUT: ≤ 4.70

---

# Experimental Target: HLA-B*15:42
# Assay Details: IEDB peptide-MHC binding, purified MHC/competitive/fluorescence; filed as Kd, often an IC50 or EC50 that approximates it; bounds were set here for any values at or beyond the usual limits of such assays
# Protocol Conditions: source organism: Giardia lamblia ATCC 50803
Endpoint Name: Kd

IN: Which Kd reading was recorded for the sequence `FPMIIGSEL` ?
OUT: ≥ 5 µM

---

# Experimental Target: HLA-A*02:03
# Assay Details: IEDB peptide-MHC binding, purified MHC/direct/fluorescence; filed as Kd, often an IC50 or EC50 that approximates it; bounds were set here for any values at or beyond the usual limits of such assays
# Protocol Conditions: source organism: Zaire ebolavirus
pKd: −log10 of the molar value.
Assignment: determine reported pKd for the given sequences.

IN: Which pKd reading was recorded for the sequence `IMYDHLPGF` ?
OUT: ≤ 4.70

IN: Which pKd reading was recorded for the sequence `ISSGETRSF` ?
OUT: ≤ 4.70

---

# Experimental Target: HLA-A*69:01
# Assay Details: IEDB peptide-MHC binding, purified MHC/direct/fluorescence; filed as Kd, often an IC50 or EC50 that approximates it; bounds were set here for any values at or beyond the usual limits of such assays
# Protocol Conditions: source organism: Pasteurella multocida
Endpoint Name: pKd
pKd (log units): -log10 of the concentration in mol/L.

IN: Which pKd reading was recorded for the sequence `LLKDLMPFV` ?
OUT: 6.79

---

# Experimental Target: HLA-B*44:02
# Assay Details: IEDB peptide-MHC binding, purified MHC/direct/fluorescence; filed as Kd, often an IC50 or EC50 that approximates it; bounds were set here for any values at or beyond the usual limits of such assays
# Protocol Conditions: source organism: Escherichia coli O157:H7 str. EC869
Endpoint Name: Kd

IN: Request: Kd, test system HLA-B*44:02, entry `ETIGLVRAL`
OUT: ≥ 20 µM

---

# Experimental Target: HLA-A*02:12
# Assay Details: IEDB peptide-MHC binding, purified MHC/competitive/fluorescence; filed as Kd, often an IC50 or EC50 that approximates it; bounds were set here for any values at or beyond the usual limits of such assays
# Protocol Conditions: source organism: Pasteurella multocida subsp. multocida str. Pm70
Endpoint Name: Kd

IN: Which Kd reading was recorded for the sequence `LLKDLMPFV` ?
OUT: ≤ 100 pM

---

# Experimental Target: HLA-B*83:01
# Assay Details: IEDB peptide-MHC binding, purified MHC/competitive/fluorescence; filed as Kd, often an IC50 or EC50 that approximates it; bounds were set here for any values at or beyond the usual limits of such assays
# Protocol Conditions: source organism: Burkholderia pseudomallei 668
Endpoint Name: Kd

IN: Request: Kd, test system HLA-B*83:01, entry `ILFDRLPIA`
OUT: ≥ 5 µM

---

# Experimental Target: HLA-B*58:01
# Assay Details: IEDB peptide-MHC binding, purified MHC/competitive/radioactivity; filed as Kd, often an IC50 or EC50 that approximates it; bounds were set here for any values at or beyond the usual limits of such assays
# Protocol Conditions: source organism: Dengue virus 4 Philippines/H241/1956
Endpoint Name: Kd (nM)
Form entry: value (nM) — number only.

IN: Which Kd reading was recorded for the sequence `VTMTLWYMW` ?
OUT: 1.59

IN: Which Kd reading was recorded for the sequence `WVAEIQPQW` ?
OUT: 57.6

IN: Which Kd reading was recorded for the sequence `PSSVAARGYI` ?
OUT: 512

---

# Experimental Target: HLA-A*02:01
# Assay Details: IEDB peptide-MHC binding, purified MHC/direct/fluorescence; filed as Kd, often an IC50 or EC50 that approximates it; bounds were set here for any values at or beyond the usual limits of such assays
# Protocol Conditions: source organism: Cowpox virus
Endpoint Name: Kd (nM)
Form entry: value (nM) — number only.

IN: Which Kd reading was recorded for the sequence `TLNHNCINV` ?
OUT: 404

---

# Experimental Target: HLA-A*31:01
# Assay Details: IEDB peptide-MHC binding, purified MHC/direct/fluorescence; filed as Kd, often an IC50 or EC50 that approximates it; bounds were set here for any values at or beyond the usual limits of such assays
# Protocol Conditions: source organism: Yellow fever virus
pKd: −log10 of the molar value.
Endpoint Name: pKd

IN: Which pKd reading was recorded for the sequence `VNRWLFRHL` ?
OUT: ≤ 4.70

---

# Experimental Target: HLA-B*51:01
# Assay Details: IEDB peptide-MHC binding, purified MHC/direct/fluorescence; filed as Kd, often an IC50 or EC50 that approximates it; bounds were set here for any values at or beyond the usual limits of such assays
# Protocol Conditions: source organism: Campylobacter jejuni
Endpoint Name: Kd

IN: Which Kd reading was recorded for the sequence `YWDQVTFFY` ?
OUT: ≥ 20 µM

---

Assignment: determine reported Kd for the given sequences.
# Experimental Target: HLA-A*02:02
# Assay Details: IEDB peptide-MHC binding, purified MHC/competitive/radioactivity; filed as Kd, often an IC50 or EC50 that approximates it; bounds were set here for any values at or beyond the usual limits of such assays
# Protocol Conditions: source organism: SARS coronavirus Tor2
Form entry: value (nM) — number only.

IN: Which Kd reading was recorded for the sequence `YLMCLSPLMA` ?
OUT: 0.237

IN: Which Kd reading was recorded for the sequence `HLDGEVLSL` ?
OUT: 65.9

IN: Which Kd reading was recorded for the sequence `ITAIYVFCI` ?
OUT: 28.7

IN: Which Kd reading was recorded for the sequence `LMYKGLPWNV` ?
OUT: 1.75

IN: Which Kd reading was recorded for the sequence `LLDDFVEII` ?
OUT: 136

IN: Which Kd reading was recorded for the sequence `YMLFTKFFYL` ?
OUT: 47.7

---

# Experimental Target: HLA-A*02:19
# Assay Details: IEDB peptide-MHC binding, purified MHC/direct/fluorescence; filed as Kd, often an IC50 or EC50 that approximates it; bounds were set here for any values at or beyond the usual limits of such assays
# Protocol Conditions: source organism: dengue virus type 3
Endpoint Name: Kd (nM)
Form entry: value (nM) — number only.

IN: Which Kd reading was recorded for the sequence `TLYAVATTV` ?
OUT: 10

---

# Experimental Target: HLA-A*29:02
# Assay Details: IEDB peptide-MHC binding, purified MHC/competitive/radioactivity; filed as Kd, often an IC50 or EC50 that approximates it; bounds were set here for any values at or beyond the usual limits of such assays
# Protocol Conditions: source organism: Mammarenavirus machupoense
Endpoint Name: Kd (µM)
Form entry: value (µM) — number only.

IN: Which Kd reading was recorded for the sequence `QCGDPSSFDY` ?
OUT: 5.83

---

# Experimental Target: HLA-B*58:01
# Assay Details: IEDB peptide-MHC binding, purified MHC/direct/fluorescence; filed as Kd, often an IC50 or EC50 that approximates it; bounds were set here for any values at or beyond the usual limits of such assays
# Protocol Conditions: source organism: Influenza A virus (A/swine/Hong Kong/5190/99(H3N2))
Endpoint Name: Kd

IN: Which Kd reading was recorded for the sequence `GYMFESKSM` ?
OUT: ≥ 20 µM
